# measurement_target: human GPR120 (Homo sapiens (Human), UniProt Q5NUL3)
# Sequence (Q5NUL3 whole entry): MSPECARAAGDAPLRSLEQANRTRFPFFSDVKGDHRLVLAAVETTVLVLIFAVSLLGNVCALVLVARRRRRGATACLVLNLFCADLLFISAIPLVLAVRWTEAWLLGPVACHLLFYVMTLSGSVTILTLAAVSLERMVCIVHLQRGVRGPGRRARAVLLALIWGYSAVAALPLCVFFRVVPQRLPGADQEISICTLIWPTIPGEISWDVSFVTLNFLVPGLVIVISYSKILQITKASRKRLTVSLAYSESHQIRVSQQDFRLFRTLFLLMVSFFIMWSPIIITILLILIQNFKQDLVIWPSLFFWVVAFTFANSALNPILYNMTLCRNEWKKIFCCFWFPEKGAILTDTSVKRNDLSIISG
# run_description: FLIPR assay: intracellular calcium in CHO cells expressing human GPR120
# Type: cell-based
# measurement_conditions: FLIPR calcium assay, CHO cells expressing human GPR120, agonist action
pEC50: −log10 of the molar value.
measured_quantity: pEC50

O=C(O)CC1COC2(CCN(c3cc(OC(F)(F)F)ccc3F)CC2)C1 (racemic) :: 5.83
COc1ccc(Cl)c(N2CCC3(CCC(CC(=O)O)CC3)CC2)c1 :: 5.78
O=C(O)CC1CCC2(CC1)CCN(c1cc(OC(F)(F)F)cc(C(F)(F)F)c1)CC2 :: 5.83
CCC(=O)c1ccc(F)c(N2CCC3(CCC(CC(=O)O)CC3)CC2)c1 :: 5.78
COc1cccc(N2CCC3(CCC(CC(=O)O)CC3)CC2)c1 :: 5.62
O=C(O)CC1CCC2(CC1)CCN(c1cc(F)ccc1C(F)F)CC2 :: 5.62
Cc1ccc(F)c(N2CCC3(CCC(CC(=O)O)CC3)CC2)c1 :: 5.64
O=C(O)CC1CCC2(CC1)CCN(c1cc(C(F)(F)F)ccc1C(F)(F)F)CC2 :: 5.49
O=C(O)CC1CCC2(CC1)CCN(c1cc(OC(F)(F)F)ccc1O)CC2 :: 6.17
FC(F)(F)Oc1ccc(Cl)c(N2CCC3(CCC(Cc4nn[nH]n4)CO3)CC2)c1 (racemic) :: 5.58
COCCOc1ccc(Cl)c(N2CCC3(CCC(CC(=O)O)CC3)CC2)c1 :: 5.16
O=C(O)CC1CCC2(CC1)CCN(c1cc(OC(F)F)ccc1Cl)CC2 :: 5.71
COc1ccc(Cl)cc1N1CCC2(CCC(CC(=O)O)CC2)CC1 :: 5.51
O=C(O)CC1CCC2(CC1)CCN(c1cc(C(F)(F)F)ccn1)CC2 :: 5.51
O=C(O)CC1CCC2(CC1)CCN(c1cc(OC3CC3)ccc1F)CC2 :: 5.67
O=C(O)CC1CCC2(CC1)CCN(c1cc(C(F)(F)F)ccc1Cl)CC2 :: 6.05
O=C(O)CC1CCC2(CC1)CCN(c1cc(OC3CC3)ccc1Cl)CC2 :: 6.06
Cc1cc(F)c(Cl)c(N2CCC3(CCC(CC(=O)O)CC3)CC2)c1 :: 5.66

Where these numbers come from: patent US9708270B2
